- Conditions: 298.2 K; Liquid; Alternating current cell with electrodes
Please mark Met if the recorded electrical conductivity is equal to or greater than 1 S/m, and Not met if it falls below.

1) CCOS(=O)(=O)[O-].CCn1cc[n+](C)c1 [1-ethyl-3-methylimidazolium ethyl sulfate]	Not met
2) CCn1cc[n+](C)c1.F[B-](F)(F)F [1-ethyl-3-methylimidazolium tetrafluoroborate]	Met
3) CCn1cc[n+](C)c1.COCCOCCOS(=O)(=O)[O-] [1-ethyl-3-methylimidazolium 2-(2-methoxyethoxy) ethylsulfate]	Not met
4) CCn1cc[n+](C)c1.N#CN=C=[N-] [1-ethyl-3-methylimidazolium dicyanamide]	Met

###

- Conditions: 328.2 K; Liquid; Alternating current cell with electrodes
Assay Endpoint: electrical conductivity

1) CCOS(=O)(=O)[O-].CCn1cc[n+](C)c1 [1-ethyl-3-methylimidazolium ethyl sulfate]	1.17 S/m
2) CCn1cc[n+](C)c1.O=S(=O)([O-])C(F)(F)F [1-ethyl-3-methylimidazolium trifluoromethanesulfonate]	2.17 S/m
3) CCn1cc[n+](C)c1.COCCOCCOS(=O)(=O)[O-] [1-ethyl-3-methylimidazolium 2-(2-methoxyethoxy) ethylsulfate]	0.545 S/m
4) CCn1cc[n+](C)c1.N#CN=C=[N-] [1-ethyl-3-methylimidazolium dicyanamide]	4.54 S/m
5) CCn1cc[n+](C)c1.F[B-](F)(F)F [1-ethyl-3-methylimidazolium tetrafluoroborate]	3.25 S/m

###

- Conditions: 343.2 K; Liquid; Alternating current cell with electrodes
Measured electrical conductivity, listed per entry.
Assay Endpoint: electrical conductivity (S/m)

1) CCn1cc[n+](C)c1.N#CN=C=[N-] [1-ethyl-3-methylimidazolium dicyanamide]	5.93
2) CCn1cc[n+](C)c1.F[B-](F)(F)F [1-ethyl-3-methylimidazolium tetrafluoroborate]	4.35
3) CCn1cc[n+](C)c1.COCCOCCOS(=O)(=O)[O-] [1-ethyl-3-methylimidazolium 2-(2-methoxyethoxy) ethylsulfate]	0.859
4) CCn1cc[n+](C)c1.O=S(=O)([O-])C(F)(F)F [1-ethyl-3-methylimidazolium trifluoromethanesulfonate]	2.94
5) CCOS(=O)(=O)[O-].CCn1cc[n+](C)c1 [1-ethyl-3-methylimidazolium ethyl sulfate]	1.74

###

Measured molar heat capacity at constant pressure, listed per entry.
- Experiment: molar heat capacity at constant pressure
- Conditions: 303.2 K; 101.33 kPa; Liquid; Small sample (50 mg) DSC
± gives the expanded uncertainty stated by the source.
Assay Endpoint: molar heat capacity at constant pressure

1. CCn1cc[n+](C)c1.N#CN=C=[N-] [1-ethyl-3-methylimidazolium dicyanamide]	328.01 ± 43 J/K/mol
2. CCn1cc[n+](C)c1.O=S(=O)([O-])C(F)(F)F [1-ethyl-3-methylimidazolium trifluoromethanesulfonate]	379.42 ± 50 J/K/mol
3. CCn1cc[n+](C)c1.COCCOCCOS(=O)(=O)[O-] [1-ethyl-3-methylimidazolium 2-(2-methoxyethoxy) ethylsulfate]	526.38 ± 69 J/K/mol
4. CCOS(=O)(=O)[O-].CCn1cc[n+](C)c1 [1-ethyl-3-methylimidazolium ethyl sulfate]	429.81 ± 56 J/K/mol
5. CCn1cc[n+](C)c1.F[B-](F)(F)F [1-ethyl-3-methylimidazolium tetrafluoroborate]	306.26 ± 40 J/K/mol

###

Measured log10 of electrical conductivity, listed per entry.
- Conditions: 308.2 K; Liquid; Alternating current cell with electrodes
Assay Endpoint: log10 of electrical conductivity (log10 of the value in S/m)

1. CCn1cc[n+](C)c1.F[B-](F)(F)F [1-ethyl-3-methylimidazolium tetrafluoroborate]	0.31
2. CCn1cc[n+](C)c1.COCCOCCOS(=O)(=O)[O-] [1-ethyl-3-methylimidazolium 2-(2-methoxyethoxy) ethylsulfate]	-0.61
3. CCOS(=O)(=O)[O-].CCn1cc[n+](C)c1 [1-ethyl-3-methylimidazolium ethyl sulfate]	-0.22
4. CCn1cc[n+](C)c1.N#CN=C=[N-] [1-ethyl-3-methylimidazolium dicyanamide]	0.46
5. CCn1cc[n+](C)c1.O=S(=O)([O-])C(F)(F)F [1-ethyl-3-methylimidazolium trifluoromethanesulfonate]	0.13
